Molecular target: hP2X2/3H (Homo sapiens, UniProt P56373+Q9UBL9)
Assay: Calcium uptake assay (Ca influx), P2X antagonist assay, P2X2/3 heteromer
Conditions: inhibition of agonist-induced calcium influx
measured property: IC50 (nM)
Numbers only; they are read as nM.

Prompt: Find the recorded IC50 belonging to "Cc1ccc(-c2cc(C(=O)N[C@H](C)c3cnc(C)nc3)cc(N3CCCC3=O)c2)nc1" and report it.
Completion: 194

Prompt: Find the recorded IC50 belonging to "Cc1ccc(-c2cc(C(=O)NCc3ccc(C)nc3)cc(-c3ccccc3F)c2)cc1" and report it.
Completion: 418

Prompt: Find the recorded IC50 belonging to "Cc1ccc(-c2cc(C(=O)NCc3ccc(C)nc3)cc(N3CCN(C)CC3=O)c2)c(C#N)c1" and report it.
Completion: 667

Prompt: Find the recorded IC50 belonging to "Cc1ccc(-c2cc(C(=O)NCc3ccc(C)nc3)cc(N3CCCCC3=O)c2)cc1" and report it.
Completion: 122

Prompt: Find the recorded IC50 belonging to "Cc1ccc(-c2cc(C(=O)NCc3ccc(C)nc3)cc(-c3ccc(CO)cc3)c2)cc1" and report it.
Completion: 503

Prompt: Find the recorded IC50 belonging to "COc1ncc(-c2cc(C(=O)NCc3ccc(C)nc3)cc(-c3ccc(C)cn3)c2)cn1" and report it.
Completion: 269

Prompt: Find the recorded IC50 belonging to "Cc1ccc(-c2cc(C(=O)NCc3ccc(C)nc3)cc(N3CCC[C@@H]3CO)c2)cc1" and report it.
Completion: 47.4

Prompt: Find the recorded IC50 belonging to "COc1ccc(-c2cc(C(=O)NCc3ccc(C)nc3)cc(-c3ccc(C)cc3)c2)c(OC)c1" and report it.
Completion: 415

====

Consider the following molecules; for each one, report its pIC50.
Target: hP2X3 (Homo sapiens)
Sequence (P56373 1-397): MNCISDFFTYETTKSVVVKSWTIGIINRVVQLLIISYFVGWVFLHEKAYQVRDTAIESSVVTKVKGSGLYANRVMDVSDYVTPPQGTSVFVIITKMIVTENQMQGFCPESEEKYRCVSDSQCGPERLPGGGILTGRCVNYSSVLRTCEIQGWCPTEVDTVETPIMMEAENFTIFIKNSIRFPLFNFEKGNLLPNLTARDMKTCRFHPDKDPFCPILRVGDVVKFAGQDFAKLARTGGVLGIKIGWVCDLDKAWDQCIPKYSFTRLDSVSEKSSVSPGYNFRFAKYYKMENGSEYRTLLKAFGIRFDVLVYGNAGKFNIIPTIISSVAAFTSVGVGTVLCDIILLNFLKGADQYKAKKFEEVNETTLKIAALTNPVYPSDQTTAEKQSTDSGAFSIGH
Assay: Calcium uptake assay (Ca influx), P2X antagonist assay, P2X3 homomer
Conditions: inhibition of agonist-induced calcium influx
pIC50 is defined as minus the log10 of a concentration measured in mol/L.

Prompt: Find the recorded pIC50 belonging to "Cc1ccc(-c2cc(C(=O)N[C@H](C)CN3CCOCC3)cc(-c3cnccc3C#N)c2)c(C#N)c1" and report it.
Completion: 7.65

Prompt: Find the recorded pIC50 belonging to "Cc1ccc(-c2cc(C(=O)NCc3ccc(C)nc3)cc(-c3ccccc3C#N)c2)cc1" and report it.
Completion: 6.71

Prompt: Find the recorded pIC50 belonging to "Cc1ccc(-c2cc(C(=O)N[C@@H](C)CO)cc(-c3cccc(F)c3F)c2)c(C#N)c1" and report it.
Completion: 7.50

Prompt: Find the recorded pIC50 belonging to "Cc1ccc(-c2cc(C(=O)N[C@H](C)c3cnc(C)nc3)cc(-c3cnccc3C#N)c2)nc1" and report it.
Completion: 7.90

Prompt: Find the recorded pIC50 belonging to "Cc1ccc(-c2cc(C(=O)N[C@H](C)CN3CCOCC3)cc(-c3cc(C(F)(F)F)ccc3C#N)c2)nc1" and report it.
Completion: 6.45

Prompt: Find the recorded pIC50 belonging to "Cc1ncc([C@@H](C)NC(=O)c2cc(-c3ccccn3)cc(-c3ccccc3C#N)c2)cn1" and report it.
Completion: 7.62

Prompt: Find the recorded pIC50 belonging to "Cc1ccc(-c2cc(C(=O)NCc3ccc(C)nc3)cc(-c3ccccc3)c2)nc1" and report it.
Completion: 6.72

Prompt: Find the recorded pIC50 belonging to "Cc1ccc(-c2cc(C(=O)N[C@H](C)c3cnc(C)nc3)cc(-c3cccc(F)c3F)c2)nc1" and report it.
Completion: 7.18

====

Biological target: hP2X3 (Homo sapiens)
Construct: expressed in transfected cells
Sequence (P56373 1-397): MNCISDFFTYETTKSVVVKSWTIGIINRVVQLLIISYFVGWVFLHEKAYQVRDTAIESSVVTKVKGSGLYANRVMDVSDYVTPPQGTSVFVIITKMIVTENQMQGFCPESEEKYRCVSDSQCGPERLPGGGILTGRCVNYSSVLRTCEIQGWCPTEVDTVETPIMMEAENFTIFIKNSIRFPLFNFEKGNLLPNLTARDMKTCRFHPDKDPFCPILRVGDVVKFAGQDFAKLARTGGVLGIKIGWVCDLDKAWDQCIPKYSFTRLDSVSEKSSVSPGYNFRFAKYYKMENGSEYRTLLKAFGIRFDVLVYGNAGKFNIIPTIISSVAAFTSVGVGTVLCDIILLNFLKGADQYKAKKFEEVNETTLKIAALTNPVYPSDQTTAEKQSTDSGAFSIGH
Experiment: Calcium uptake assay (Ca influx), P2X antagonist assay, P2X3 homomer
Type: cell-based
Conditions: inhibition of agonist-induced calcium influx
measured property: pIC50
pIC50 is defined as minus the log10 of a concentration measured in mol/L.

Prompt: Find the recorded pIC50 belonging to "Cc1ccc(-c2cc(C(=O)N[C@H](C)c3cnc(C)nc3)cc(-c3cccc(F)c3C#N)c2)nc1" and report it.
Completion: 7.58

Prompt: Find the recorded pIC50 belonging to "Cc1ccc(-c2cc(C(=O)NCc3ccc(C)nc3)cc(-c3ccncc3)c2)nc1" and report it.
Completion: 7.21

Prompt: Find the recorded pIC50 belonging to "Cc1ccc(-c2cc(C(=O)N[C@H](C)c3cnc(C)nc3)cc(N3CCCC3=O)c2)nc1" and report it.
Completion: 7.45

Prompt: Find the recorded pIC50 belonging to "Cc1ccc(-c2cc(C(=O)NCc3ccc(C)nc3)cc(N3CCC[C@@H]3CO)c2)cc1" and report it.
Completion: 7.34

Prompt: Find the recorded pIC50 belonging to "COc1cccc(-c2cc(C(=O)NCc3ccc(C)nc3)cc(-c3ccc(C)cc3)c2)c1" and report it.
Completion: 6.31

Prompt: Find the recorded pIC50 belonging to "Cc1ccc(-c2cc(C(=O)NCc3ccc(C)nc3)cc(-c3ccccc3CO)c2)nc1" and report it.
Completion: 8.05

Prompt: Find the recorded pIC50 belonging to "Cc1ccc(-c2cc(C(=O)NCc3cnc(C)nc3)cc(-c3ncccn3)c2)cc1" and report it.
Completion: 7.11

Prompt: Find the recorded pIC50 belonging to "Cc1ccc(-c2cc(C(=O)N[C@@H](C)CO)cc(-c3cc(C)ccc3C#N)c2)nc1" and report it.
Completion: 7.36

Prompt: Find the recorded pIC50 belonging to "Cc1ccc(-c2cc(C(=O)NCc3cnc(C)nc3)cc(N3CCCCC3=O)c2)cc1" and report it.
Completion: 7.09

Prompt: Find the recorded pIC50 belonging to "Cc1ccc(-c2cc(C(=O)NCc3ccc(C)nc3)cc(-c3ccc(CO)cc3)c2)cc1" and report it.
Completion: 6.51

Prompt: Find the recorded pIC50 belonging to "Cc1ccc(-c2cc(C(=O)NCc3ccc(C)nc3)cc(-c3cccnc3)c2)nc1" and report it.
Completion: 7.41

Prompt: Find the recorded pIC50 belonging to "Cc1ccc(-c2cc(C(=O)N[C@H](C)c3cnc(C)nc3)cc(-c3ccccc3C#N)c2)nc1" and report it.
Completion: 7.85

Prompt: Find the recorded pIC50 belonging to "Cc1ccc(-c2cc(C(=O)N[C@H](C)CN3CCOCC3)cc(-c3cc(C)ccc3C#N)c2)nc1" and report it.
Completion: 6.98

Prompt: Find the recorded pIC50 belonging to "Cc1ccc(-c2cc(C(=O)NCc3cnc(C)nc3)cc(N3CCCC3=O)c2)cc1" and report it.
Completion: 7.59

Prompt: Find the recorded pIC50 belonging to "COc1ccc(-c2cc(C(=O)NCc3ccc(C)nc3)cc(-c3ccc(C)cc3)c2)cc1" and report it.
Completion: 5.61

Prompt: Find the recorded pIC50 belonging to "Cc1ccc(-c2cc(C(=O)NCc3ccc(C)nc3)cc(-c3ccc(F)cc3F)c2)cc1" and report it.
Completion: 5.71

Prompt: Find the recorded pIC50 belonging to "Cc1ccc(-c2cc(C(=O)NCc3ccc(C)nc3)cc(-c3ccccn3)c2)nc1" and report it.
Completion: 7.24

Prompt: Find the recorded pIC50 belonging to "Cc1ccc(-c2cc(C(=O)N[C@@H](C)CO)cc(-c3ccccc3CO)c2)nc1" and report it.
Completion: 7.48

Prompt: Find the recorded pIC50 belonging to "Cc1ccc(-c2cc(C(=O)NCc3ccc(C)nc3)cc(N3CCC[C@H]3CO)c2)cc1" and report it.
Completion: 7.18

Prompt: Find the recorded pIC50 belonging to "Cc1ccc(-c2cc(C(=O)NCc3cnc(C)nc3)cc(N3CCOCC3=O)c2)c(C#N)c1" and report it.
Completion: 7.48

Prompt: Find the recorded pIC50 belonging to "Cc1ccc(-c2cc(C(=O)NCc3ccc(C)nc3)cc(-c3ccccc3OC(F)(F)F)c2)nc1" and report it.
Completion: 6.50

Prompt: Find the recorded pIC50 belonging to "Cc1ccc(-c2cc(C(=O)NCc3ccc(C)nc3)cc(-c3ccncc3)c2)cc1" and report it.
Completion: 6.72

Prompt: Find the recorded pIC50 belonging to "Cc1ccc(-c2cc(C(=O)NCc3ccc(C)nc3)cc(-c3ccc(C#N)cc3)c2)cc1" and report it.
Completion: 6.20

Prompt: Find the recorded pIC50 belonging to "Cc1ccc(-c2cc(C(=O)NCc3cnc(C)nc3)cc(-c3ccc(C)cn3)c2)cc1" and report it.
Completion: 7.23

Prompt: Find the recorded pIC50 belonging to "Cc1ccc(-c2cc(C(=O)NCc3cnc(C)nc3)cc(-c3ccc(C)cn3)c2)nc1" and report it.
Completion: 7.59

Prompt: Find the recorded pIC50 belonging to "COc1ccccc1-c1cc(C(=O)NCc2ccc(C)nc2)cc(-c2ccc(C)cc2)c1" and report it.
Completion: 6.51

Prompt: Find the recorded pIC50 belonging to "COc1ncc(-c2cc(C(=O)NCc3ccc(C)nc3)cc(-c3ccc(C)cn3)c2)cn1" and report it.
Completion: 7.02

Prompt: Find the recorded pIC50 belonging to "Cc1ccc(-c2cc(C(=O)N[C@H](C)c3ccc(C)nc3)cc(N3CCCCC3=O)c2)cc1" and report it.
Completion: 7.58

Prompt: Find the recorded pIC50 belonging to "Cc1ccc(-c2cc(C(=O)NCc3ccc(C)nc3)cc(N3CCNCC3=O)c2)c(C#N)c1" and report it.
Completion: 6.93

Prompt: Find the recorded pIC50 belonging to "COc1ccc(-c2cc(C(=O)NCc3ccc(C)nc3)cc(-c3ccc(C)cc3)c2)cc1OC" and report it.
Completion: 6.12

Prompt: Find the recorded pIC50 belonging to "Cc1ccc(-c2cc(C(=O)NCc3ccc(C)nc3)cc(-c3ccccc3F)c2)nc1" and report it.
Completion: 7.14

Prompt: Find the recorded pIC50 belonging to "Cc1ccc(-c2cc(C(=O)NCc3ccc(C)nc3)cc(N3CCN(C)CC3=O)c2)c(C#N)c1" and report it.
Completion: 6.99
